tested on: Human immunodeficiency virus 1; experiment: Antiviral activity against HIV-1 NL4-3 harboring reverse transcriptase K103N mutant infected in human MAGI-CCR5 cells assessed as reduction in viral infection after 48 hrs by fluorescence based beta-galactosidase reporter gene assay; format: functional, cell-based; conditions: Human immunodeficiency virus 1, NL4-3, MAGI-CCR5, 48 h
Answer each item with its documented IC50.
One number for each entry, in µM.

Cc1ccnc2c1NC(=O)c1cccnc1N2C1CC1	0.03
CC1=C(c2nc(-c3ccc(C#N)cc3)cs2)C(c2cc3ccccc3n2C)NC(=O)N1 (stereo not drawn)	3.84

Moving on to another compound below.
Prompt: IC50 for Cc1cn([C@H]2C[C@H](N=[N+]=[N-])[C@@H](CO)O2)c(=O)[nH]c1=O ?
Completion: 0.01

Measured values drawn from ChEMBL document CHEMBL4043090 for this set.
